Biological target: JAK2 (Homo sapiens)
Construct: endogenous in cells
Sequence (O60674 whole entry): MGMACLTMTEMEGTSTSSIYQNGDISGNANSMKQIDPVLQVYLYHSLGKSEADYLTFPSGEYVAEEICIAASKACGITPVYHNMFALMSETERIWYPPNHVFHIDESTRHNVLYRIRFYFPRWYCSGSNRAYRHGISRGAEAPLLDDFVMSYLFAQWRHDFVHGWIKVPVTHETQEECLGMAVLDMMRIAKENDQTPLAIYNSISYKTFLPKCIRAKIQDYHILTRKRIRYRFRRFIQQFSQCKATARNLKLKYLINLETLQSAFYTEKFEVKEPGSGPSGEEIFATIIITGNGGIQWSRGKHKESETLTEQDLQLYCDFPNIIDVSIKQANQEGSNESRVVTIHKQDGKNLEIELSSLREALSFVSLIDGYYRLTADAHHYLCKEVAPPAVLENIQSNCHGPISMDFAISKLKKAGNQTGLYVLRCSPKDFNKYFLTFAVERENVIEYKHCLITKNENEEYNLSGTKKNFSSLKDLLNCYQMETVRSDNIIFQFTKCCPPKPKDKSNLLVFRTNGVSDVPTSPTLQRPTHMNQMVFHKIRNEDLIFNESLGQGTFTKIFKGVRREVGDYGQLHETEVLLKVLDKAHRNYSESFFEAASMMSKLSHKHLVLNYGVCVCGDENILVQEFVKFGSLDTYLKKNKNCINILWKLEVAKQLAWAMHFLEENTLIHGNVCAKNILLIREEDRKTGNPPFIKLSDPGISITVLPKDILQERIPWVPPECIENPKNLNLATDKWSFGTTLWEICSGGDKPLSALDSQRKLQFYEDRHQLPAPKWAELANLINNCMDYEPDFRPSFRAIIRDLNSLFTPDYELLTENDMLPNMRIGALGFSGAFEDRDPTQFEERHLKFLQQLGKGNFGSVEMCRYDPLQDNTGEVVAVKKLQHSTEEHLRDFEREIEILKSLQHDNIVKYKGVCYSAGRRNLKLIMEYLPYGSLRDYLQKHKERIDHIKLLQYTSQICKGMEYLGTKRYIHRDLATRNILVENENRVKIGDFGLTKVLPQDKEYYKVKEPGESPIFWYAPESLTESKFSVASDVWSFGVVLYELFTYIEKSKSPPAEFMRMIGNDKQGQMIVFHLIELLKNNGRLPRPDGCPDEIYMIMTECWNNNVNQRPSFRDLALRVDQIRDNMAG
Test: Kinobeads assay, JAK2
Conditions: mixed Molt4/Ramos lysate, read-out: Inhibition values (IC50) JAK2
Protocol: The compounds of the present invention as described in the previous examples were tested in a Kinobeads™ assay as described for ZAP-70 (WO-A 2007/137867). […] Bound proteins were then eluted and the presence of JAK2 and JAK3 was detected and quantified using specific antibodies in a dot blot procedure and the Odyssey infrared detection system. Dose response curves for individual kinases were generated and IC50 values calculated. […]
Let's look at some compounds and their measured IC50.
measure-name: IC50

>  <structure-as-smiles>
OCCn1cc(Nc2ncc3cnn(Cc4cccc(N5CCOCC5)c4F)c3n2)cn1

>  <measure-name>
IC50

>  <measured>
1 to 10 µM

$$$$
>  <structure-as-smiles>
Cn1cc(-c2cccc(Cn3ncc4cnc(Nc5cnn(CCO)c5)nc43)c2)cn1

>  <measure-name>
IC50

>  <measured>
1 to 10 µM

$$$$
>  <structure-as-smiles>
Cn1cc(Nc2ncc3cnn(Cc4cc(N5CCNCC5=O)cc(F)c4F)c3n2)cn1

>  <measure-name>
IC50

>  <measured>
≥ 10 µM

$$$$
>  <structure-as-smiles>
O=C1COCCN1c1cccc(Cn2ncc3cnc(Nc4cnn(CCO)c4)nc32)c1

>  <measure-name>
IC50

>  <measured>
≥ 10 µM

$$$$
>  <structure-as-smiles>
Cn1cc(Nc2ncc3cnn(Cc4cccc(N5CCOCC5)c4F)c3n2)cn1

>  <measure-name>
IC50

>  <measured>
1 to 10 µM

$$$$

---

Biological target: Aurora B (Homo sapiens, UniProt Q96GD4)
Construct: cell lysates from Jurkat cells (ATCC TIB-152) used; endogenous in cells
Sequence (Q96GD4 whole entry): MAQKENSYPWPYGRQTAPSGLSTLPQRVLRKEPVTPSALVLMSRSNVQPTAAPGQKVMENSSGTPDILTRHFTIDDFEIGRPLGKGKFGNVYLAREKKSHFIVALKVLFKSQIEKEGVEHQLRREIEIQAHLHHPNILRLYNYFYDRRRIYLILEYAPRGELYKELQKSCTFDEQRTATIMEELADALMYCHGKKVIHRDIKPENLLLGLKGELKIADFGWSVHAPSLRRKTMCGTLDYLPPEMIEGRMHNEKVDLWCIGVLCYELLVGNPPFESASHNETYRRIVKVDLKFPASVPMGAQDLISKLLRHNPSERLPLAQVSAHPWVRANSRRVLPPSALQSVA
Test: Kinobeads assay, Aurora B
Conditions: lysate of pervanadate-treated Jurkat cells, read-out: Inhibition values (IC50) Aur B
pIC50: −log10 of the molar value.
Let's look at some molecules and their measured pIC50.

>  <structure-as-smiles>
Cn1cc(Nc2ncc3cnn(Cc4cccc(-c5cnn(C)c5)c4)c3n2)cn1

>  <pIC50>
5.00 to 6.00

$$$$
>  <structure-as-smiles>
Cn1cc(Nc2ncc3cnn(Cc4cccc(-c5cnn(C)c5)c4F)c3n2)cn1

>  <pIC50>
5.00 to 6.00

$$$$
>  <structure-as-smiles>
Cn1cc(Nc2ncc3cnn(Cc4cccc(N5CCNCC5=O)c4)c3n2)cn1

>  <pIC50>
5.00 to 6.00

$$$$
>  <structure-as-smiles>
O=C(c1cc(F)c(F)c(Cn2ncc3cnc(Nc4cnn(CCO)c4)nc32)c1F)N1CCOCC1

>  <pIC50>
6.00 to 7.00

$$$$
>  <structure-as-smiles>
Cn1cc(Nc2ncc3cnn(Cc4cccc(N5CCC(F)(F)CC5)c4)c3n2)cn1

>  <pIC50>
≤ 5.00

$$$$
>  <structure-as-smiles>
O=C(CCn1cc(Nc2ncc3cnn(Cc4cccc(N5CCOCC5)c4)c3n2)cn1)NC1CC1

>  <pIC50>
5.00 to 6.00

$$$$
>  <structure-as-smiles>
OCCn1cc(Nc2ncc3cnn(Cc4cc(N5CCNCC5)cc(F)c4F)c3n2)cn1

>  <pIC50>
> 7.00

$$$$
>  <structure-as-smiles>
CNC(=O)Cn1cc(Nc2ncc3cnn(Cc4cccc(N5CCOCC5)c4)c3n2)cn1

>  <pIC50>
6.00 to 7.00

$$$$

The measured values listed here are drawn from patent US9040545B2.
